Assay: inhibitors of TNFa-induced NFkB p65 translocation, primary screen, imaging, HUVEC, MLSMR starter and 10KST1 sets (AID 438);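 also: compound added about 3h40 before a 20 min TNFalpha stimulation; signal is the nuclear over cytoplasmic p65 intensity ratio per well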
Conditions: HUVEC TNFa-induced p65 nuclear translocation; at 2 µM, stronger effect = higher value, 0% TNFa-plus-vehicle, 100% no-TNFa wells
endpoint: inhibition (%)
State the answer as a number, implicitly in %.

[[record]]
molecule = "COc1ccccc1NC(=O)NC1(C(=O)N2CCC(O)CC2)CCCCC1"
endpoint = "inhibition"
reported_measurement = 3.9


Tell me inhibition reported for `O=C(O)c1ccc(-n2nc(C(F)(F)F)c3c2-c2ccoc2CC3)cc1` -5.9

====

Biological target: Alpha-2C adrenergic receptor (Homo sapiens) (UniProt P18825)
Sequence (P18825 whole entry, looked up): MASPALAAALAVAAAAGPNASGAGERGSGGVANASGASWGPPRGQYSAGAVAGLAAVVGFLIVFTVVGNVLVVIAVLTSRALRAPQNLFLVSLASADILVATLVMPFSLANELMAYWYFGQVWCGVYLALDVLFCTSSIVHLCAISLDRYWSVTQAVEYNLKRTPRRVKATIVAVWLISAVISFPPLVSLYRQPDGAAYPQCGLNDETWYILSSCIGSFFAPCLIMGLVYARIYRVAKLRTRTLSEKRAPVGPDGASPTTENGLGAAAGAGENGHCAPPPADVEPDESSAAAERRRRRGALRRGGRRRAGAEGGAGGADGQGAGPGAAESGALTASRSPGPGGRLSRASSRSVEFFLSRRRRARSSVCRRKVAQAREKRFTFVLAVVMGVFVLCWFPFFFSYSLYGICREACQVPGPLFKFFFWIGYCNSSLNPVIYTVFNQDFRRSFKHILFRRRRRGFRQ
Experiment: compounds altering alpha2C-coupled GIRK flux – cell-based, HEK293 alpha2C/GIRK1/2, thallium flux, primary screen (AID 624);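 also: slope of fluorescence ratio to pre-addition baseline per second over 15 to 24 s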
Settings: thallium flux BTC fluorescence, at 10 µM, actives lie on both sides
Threshold-based label: slope under 0.006 gives label 1, slope not under 0.006 gives label 0.

Solved entries (count: 8):
[[record]]
molecule = "Cc1nnc(SC(=O)N2c3ccccc3Sc3ccccc32)s1"
test_system = "Alpha-2C adrenergic receptor (Homo sapiens) (UniProt P18825)"
assigned_label = "label 0"

[[record]]
molecule = "O=C(NCc1ccco1)c1cccc(-c2nnc(-c3ccccc3)o2)c1"
test_system = "Alpha-2C adrenergic receptor (Homo sapiens) (UniProt P18825)"
assigned_label = "label 1"

[[record]]
molecule = "COc1ccc(NC(=O)C2Cc3ccccc3C(=O)O2)cc1 (configuration not stated)"
test_system = "Alpha-2C adrenergic receptor (Homo sapiens) (UniProt P18825)"
assigned_label = "label 1"

[[record]]
molecule = "c1ccc2c(c1)nc(-c1ccncc1)n1nnnc21"
test_system = "Alpha-2C adrenergic receptor (Homo sapiens) (UniProt P18825)"
assigned_label = "label 0"

[[record]]
molecule = "N#Cc1c(N)oc(-c2cccs2)c1-c1cccs1"
test_system = "Alpha-2C adrenergic receptor (Homo sapiens) (UniProt P18825)"
assigned_label = "label 1"

[[record]]
molecule = "CCOCCn1c(CN2CCC(Cc3ccccc3)CC2)nc2c1c(=O)n(C)c(=O)n2C"
test_system = "Alpha-2C adrenergic receptor (Homo sapiens) (UniProt P18825)"
assigned_label = "label 1"

[[record]]
molecule = "COC(=O)/C=c1\\sc2ncnn2c1=O"
test_system = "Alpha-2C adrenergic receptor (Homo sapiens) (UniProt P18825)"
assigned_label = "label 0"

[[record]]
molecule = "Cc1cccc(C(=O)N(C)c2nnc(-c3ccncc3)s2)c1"
test_system = "Alpha-2C adrenergic receptor (Homo sapiens) (UniProt P18825)"
assigned_label = "label 0"


Just wondering, is slope of `CCOC(=O)c1ccc2[nH]c3c(c2c1)CCCCC3=O` below 0.006? label 1

Just wondering, is slope of Cc1ccc2[nH]c(=O)c(C(c3nnnn3CCc3ccccc3)N3CCOCC3)cc2c1 (configuration not stated) below 0.006? label 0

Just wondering, is slope of O=C(O)C1CC=CCC1C(=O)Nc1cccc(F)c1 (configuration not stated) below 0.006? label 1

Just wondering, is slope of `CCOc1ccc2[nH]cc(C(=O)N3CCN(CC)CC3)c(=O)c2c1` below 0.006? label 1

Just wondering, is slope of `FC(F)Oc1cccc2cccnc12` below 0.006? label 1

Just wondering, is slope of `O=C(Cc1cccs1)Nc1ccccc1NC(=O)Cc1cccs1` below 0.006? label 0

Just wondering, is slope of `Cc1nc2ccccc2c(=O)n1NC(=O)Nc1ccccc1` below 0.006? label 0
